quantity: pIC50
Friendly reminder that pIC50 comes from taking -log10 of the concentration in mol/L.

GET /values?item= `CC(C)n1c(=O)c2cnc(Nc3ccc4c(c3)CCN(CCCN)C4)nc2n1-c1ccnc(C(C)(C)C)c1` &system= WEE1 kinase enzyme (Homo sapiens, UniProt P30291) returns pIC50: 8.40

GET /values?item= `CC(C)n1cc(-n2c3nc(Nc4ccc5c(c4)CCNC5)ncc3c(=O)n2C(C)C)cn1` &system= WEE1 kinase enzyme (Homo sapiens, UniProt P30291) returns pIC50: 6.97

GET /values?item= `CC(C)N1CCc2cc(Nc3ncc4c(=O)n(C(C)C)n(-c5ccnc(C(C)(C)C)c5)c4n3)ccc2C1` &system= WEE1 kinase enzyme (Homo sapiens, UniProt P30291) returns pIC50: 7.68

GET /values?item= `CC(C)n1c(=O)c2cnc(Nc3ccc4c(c3)CNCC4)nc2n1-c1cccc(C(=O)N(C)C)c1` &system= WEE1 kinase enzyme (Homo sapiens, UniProt P30291) returns pIC50: 8.52
